Cited source for all entries: paper PMC9177958

Target: UPF2-MIF4GIII (UniProt Q9HAU5 761-1054)
Sequence (Q9HAU5 761-1054): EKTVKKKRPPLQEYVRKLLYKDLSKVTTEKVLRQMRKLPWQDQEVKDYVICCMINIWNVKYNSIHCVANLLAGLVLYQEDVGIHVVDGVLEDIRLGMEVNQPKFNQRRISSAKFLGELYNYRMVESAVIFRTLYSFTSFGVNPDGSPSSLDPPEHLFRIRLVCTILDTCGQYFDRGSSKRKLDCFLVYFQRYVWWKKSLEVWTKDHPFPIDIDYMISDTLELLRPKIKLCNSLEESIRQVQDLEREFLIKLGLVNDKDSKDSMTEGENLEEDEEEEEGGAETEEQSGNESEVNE
Assay: fluorescence anisotropy; FA: 5 nM probe, 150 mM NaCl, 25 mM HEPES pH 7.45, 1 mM TCEP, 20 C; EMSA: 250 nM probe, 25 mM HEPES pH 7.45, 2 mM MgCl2, 150 mM NaCl, 0.5 mM TCEP, on ice
Conditions: protein: recombinant; tags: 6xHis removed by TEV; label: 5' HEX; single strand; 24-mer hairpin RNA
measure: Kd

[
  {
    "binder": "CACUGAUCUGACGCUGCACCUGGG (ssRNA) [24mer ssRNA]",
    "readout value": "~700 nM"
  }
]
